# TARGET DESC: T1, Recombinant Human IL-23 (human, UniProt Q9NPF7 20-189; P29460 23-328)
# T1 construct: Recombinant soluble cytokine; also called hIL-23
# T1 sequence (looked up) 1: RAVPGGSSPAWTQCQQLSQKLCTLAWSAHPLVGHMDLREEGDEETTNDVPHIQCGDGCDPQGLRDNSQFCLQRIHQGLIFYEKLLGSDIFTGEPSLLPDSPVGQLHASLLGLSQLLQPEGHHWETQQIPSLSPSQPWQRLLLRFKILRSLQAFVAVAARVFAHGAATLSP
# T1 sequence (looked up) 2: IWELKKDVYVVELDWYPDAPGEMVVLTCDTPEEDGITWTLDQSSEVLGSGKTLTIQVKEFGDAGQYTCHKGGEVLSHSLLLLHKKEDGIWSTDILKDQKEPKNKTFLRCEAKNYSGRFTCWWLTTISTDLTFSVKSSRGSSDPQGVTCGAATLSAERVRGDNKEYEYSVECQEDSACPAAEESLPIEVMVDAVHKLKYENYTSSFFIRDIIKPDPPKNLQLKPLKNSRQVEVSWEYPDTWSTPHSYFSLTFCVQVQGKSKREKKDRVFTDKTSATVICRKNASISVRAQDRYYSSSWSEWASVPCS
# ASSAY COMMENT: SPR (Biacore 8K), mAb captured on anti-human IgG, human IL-23 as analyte, 25 C, 1:1 model
Record form. Attribute: kon. Fill in for each entry.
Give bare numbers, in M⁻¹ s⁻¹.

Reference Antibody 1 (antibody, human IgG1, kappa, L234A L235A, V domains shown, also called anti-human IL-23p19 antibody; parental antibody) VH: QVQLVQSGAEVKKPGSSVKVSCKASGYTFTDQTIHWMRQAPGQGLEWIGYIYPRDDSPKYNENFKGKVTITADKSTSTAYMELSSLRSEDTAVYYCAIPDRSGYAWFIYWGQGTLVTVSS VL: DIQMTQSPSSLSASVGDRVTITCKASRDVAIAVAWYQQKPGKVPKLLIYWASTRHTGVPSRFSGSGSRTDFTLTISSLQPEDVADYFCHQYSSYPFTFGSGTKLEIKR
167000
IL-23 antibody clone 203 (antibody, human IgG1, kappa, L234A L235A, V domains shown, Full antibody format) VH: EVQLLESGGGLVQPGGSLRLSCAASGYTFTDQTIHWVRQAPGKGLEWIGYIYPRDDSPKYNENFKGRATLSADKSKNTAYLQMNSLRAEDTAVYYCAIPDRSGYAWFIYWGQGTTVTVSS VL: EIVMTQSPATLSVSPGERATLSCKASRDVAIAVAWYQQKPGQAPRLLLFWASTRHTGIPARFSGSGSRTEFTLTISSLQSEDFAVYYCHQYSSYPFTFGGGTKVEIKR
271000
IL-23 antibody clone 202 (antibody, human IgG1, kappa, L234A L235A, V domains shown, Full antibody format) VH: EVQLLESGGGLVQPGGSLRLSCAASGYTFTDQTIHWVRQAPGKGLEWIGYIYPRDDSPKYNENFKGRATLSADKSKNTAYLQMNSLRAEDTAVYYCAIPDRSGYAWFIYWGQGTTVTVSS VL: EIVMTQSPATLSVSPGERATLSCKASRDVAIAVAWYQQKPGQAPRLLLYWASTRHTGIPARFSGSGSRTEFTLTISSLQSEDFAVYYCHQYSSYPFTFGGGTKVEIKR
210000

Now look at this one.
## Task Fill in kon for record IL-23 antibody clone 107 (antibody, human IgG1, kappa, L234A L235A, V domains shown) VH: QVQLVQSGAEVKKPGSSVKVSCKASGYTFTAQTIHWMRQAPGQGLEWIGYIYPRDDTPKYNPNFKGKVTITADKSTSTAYMELSSLRSEDTAVYYCAIPDRSGYAWFDYWGQGTLVTVSS VL: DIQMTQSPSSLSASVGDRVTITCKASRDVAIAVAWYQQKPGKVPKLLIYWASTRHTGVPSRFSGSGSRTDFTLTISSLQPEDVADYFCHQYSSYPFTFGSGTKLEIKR
## Result 187000

# credit: patent US20250346660A1
